Assay: Plasma pharmacokinetics (LC–MS/MS, non-compartmental analysis)
Format: in vivo, Japanese patients
Conditions: human, plasma, oral, 1000 mg, Cycle 1 Day 28; 1000 mg qd; n = 2; read-out: AUCinf, Median
measurement kind: AUC(0-inf) (ng·h/mL)
One number for each entry, in ng·h/mL.

Input line: # query: AUC(0-inf) of entry Cn1c(=O)n(-c2ccc(C(C)(C)C#N)cc2)c2c3cc(-c4cnc5ccccc5c4)ccc3ncc21
Output line: 3770

----------
Assay: Plasma pharmacokinetics (LC–MS/MS, non-compartmental analysis)
Type: in vivo, Japanese patients
Conditions: human, plasma, oral, 400 mg, Cycle 1 Day 28; 400 mg qd; n = 3; read-out: Cmax, Median
measurement kind: Cmax (ng/mL)
Give bare numbers, in ng/mL.

Input line: Item Cn1c(=O)n(-c2ccc(C(C)(C)C#N)cc2)c2c3cc(-c4cnc5ccccc5c4)ccc3ncc21 has what recorded Cmax?
Output line: 795
